Tested on: Amaranthus retoflexus (AMARE)
Experiment: Post-emergence herbicidal glasshouse test
Type: in vivo
Conditions: 250 g/ha, evaluated after 13 days
parameterMeasured: percentage damage caused to the plant (five-point scale), AMARE

Guide cases for percentage damage caused to the plant (five-point scale), AMARE, answers given:
CC(C)(C#N)CCCn1nc(C(F)(F)F)cc1Cc1ncc(Cl)cn1 [Compound 1.019]
1 (0-20%)
FC(F)(Cl)c1cc(Cc2ncc(Cl)cn2)n(CCC2CC2)n1 [Compound 1.032]
5 (81-100%)

Given the entry FC(F)c1cc(Cc2ncc(Cl)cn2)n(CCC(F)(F)F)n1 [Compound 1.007] , report its measured percentage damage caused to the plant (five-point scale), AMARE.
4 (61-80%)

Also Fc1cc(Cl)cnc1Cc1cc(C(F)(F)F)nn1CCC(F)(F)F [Compound 1.018] , if possible.
1 (0-20%)

Check FC(F)CCn1nc(C(F)(F)Cl)cc1Cc1ncc(Cl)cn1 [Compound 1.031] too.
4 (61-80%)

Then this molecule: C=CCn1nc(C(F)F)cc1Cc1ncc(Cl)cn1 [Compound 1.026]
1 (0-20%)

Query CCSCCn1nc(C(F)F)cc1Cc1ncc(Cl)cn1 [Compound 1.030] next
5 (81-100%)

Then what about the molecule C=Cn1nc(C(F)F)cc1Cc1ncc(Cl)cn1 [Compound 1.037] ?
4 (61-80%)

// repeat for CC(C)(C#N)CCCn1nc(C(F)(F)F)cc1Cc1ncc(Cl)cn1 [Compound 1.029] and report
4 (61-80%)

---

Examples of compounds with documented percentage damage caused to the plant (five-point scale), AMAPA follow.
System: Amaranthus palmeri (AMAPA)
Assay: Post-emergence herbicidal glasshouse test
Type: in vivo
Details: 250 g/ha, evaluated after 13 days

FC(F)c1cc(Cc2ncc(Cl)cn2)n(CCCC(F)(F)F)n1
1 (0-20%)
C=CCCn1nc(C(F)F)cc1Cc1ncc(Cl)cn1
2 (21-40%)
FC(F)c1cc(Cc2ncc(Cl)cn2)n(CCC(F)(F)F)n1
3 (41-60%)
FC(F)c1cc(Cc2ncc(Cl)cn2)n(CCC2CCOC2)n1 (stereo not drawn)
1 (0-20%)
FC(F)(F)c1cc(Cc2ncc(Cl)cn2)n(C2CCCC2)n1
2 (21-40%)

Attention now turns to another entry.
GET /values?readout=percentage damage caused to the plant (five-point scale), AMAPA&item= `FC(F)(Cl)c1cc(Cc2ncc(Cl)cn2)n(CCC2CC2)n1`
5 (81-100%)

---

// percentage damage caused to the plant (five-point scale), ECHCG lookup, one value per entry
Tested on: Echinochloa crus-galli (ECHCG)
Experiment: Post-emergence herbicidal glasshouse test
Type: in vivo
Settings: 250 g/ha, evaluated after 13 days

# count of solved cases: 6
CS(=O)(=O)CCn1nc(C(F)F)cc1Cc1ncc(Cl)cn1
1 (0-20%)
C=CCCn1nc(C(F)F)cc1Cc1ncc(Cl)cn1
1 (0-20%)
FC(F)c1cc(Cc2ncc(Cl)cn2)n(CCC(F)(F)F)n1
2 (21-40%)
CCSCCn1nc(C(F)F)cc1Cc1ncc(Cl)cn1
2 (21-40%)
FC(F)CCCn1nc(C(F)(F)F)cc1Cc1ncc(Cl)cn1
4 (61-80%)
CCCCn1nc(C(F)(F)Cl)cc1Cc1ncc(Cl)cn1
2 (21-40%)

Lab note: need percentage damage caused to the plant (five-point scale), ECHCG for `FC(F)(Cl)c1cc(Cc2ncc(Cl)cn2)n(CCC2CC2)n1` on Echinochloa crus-galli (ECHCG), anyone have it?
4 (61-80%)

Again, but for `CCCCn1nc(C(F)F)cc1Cc1ncc(Cl)cc1F`
1 (0-20%)
